Quick record: IC50, KIT (Homo sapiens, UniProt P10721).
PROPERTY LABEL: IC50

[[record]]
compound = "[2H]C([2H])([2H])n1cc(-c2[nH]c3ncc4c(c3c2-c2ccc(OC)cc2)n([C@H]2CC[C@@](C)(NC(=O)C3CC3)CC2)c(=O)n4C)c(F)n1 [Example 3]"
property_label = "IC50"
reported = "250 to 1250 nM"

[[record]]
compound = "[2H]C([2H])([2H])n1cc(-c2[nH]c3ncc4c(c3c2-c2ccc3c(cnn3C([2H])([2H])[2H])c2)n([C@H]2CC[C@@](C)(NC(=O)C3CC3)CC2)c(=O)n4C)c(F)n1 [Example 4]"
property_label = "IC50"
reported = "250 to 1250 nM"

[[record]]
compound = "[2H]C([2H])([2H])n1ncc2cc(-c3c(-c4cn(C)nc4OC)[nH]c4ncc5c(c34)n([C@H]3CC[C@@](C)(NC(=O)C4CC4)CC3)c(=O)n5C)ccc21 [Example 2]"
property_label = "IC50"
reported = "> 2500 nM"

[[record]]
compound = "[2H]C([2H])([2H])n1ncc2cc(-c3c(-c4cn(CC)nc4F)[nH]c4ncc5c(c34)n([C@H]3CC[C@@](C)(NC(=O)C4CC4)CC3)c(=O)n5C)ccc21 [Example 5]"
property_label = "IC50"
reported = "250 to 1250 nM"

[[record]]
compound = "COc1ccc(-c2c(-c3cn(C)nc3OC)[nH]c3ncc4c(c23)n([C@H]2CC[C@@](C)(NC(=O)C3CC3)CC2)c(=O)n4C)cc1 [Example 1]"
property_label = "IC50"
reported = "> 2500 nM"

[[record]]
compound = "[2H]C([2H])([2H])n1cc(-c2[nH]c3ncc4c(c3c2-c2ccc(OC)cc2)n([C@H]2CC[C@@](C)(NC(=O)[C@H]3C[C@H]3F)CC2)c(=O)n4C([2H])([2H])[2H])c(F)n1 [Example 6]"
property_label = "IC50"
reported = "250 to 1250 nM"

[[record]]
compound = "[2H]C([2H])([2H])n1ncc2cc(-c3c(-c4cn(C)nc4OC)[nH]c4ncc5c(c34)n(C3CCOCC3)c(=O)n5C)ccc21 [Comparative Example B, reference compound]"
property_label = "IC50"
reported = "1250 to 2500 nM"

[[record]]
compound = "Cn1cc(-c2[nH]c3ncc4c(c3c2-c2ccc3c(cnn3C)c2)n([C@H]2CC[C@@H](CC#N)CC2)c(=O)n4C)cn1 [Comparative Example C, reference compound]"
property_label = "IC50"
reported = "25 to 250 nM"


###

Entries and their IC50 values follow.
STUDY TARGET: FLT3 (Homo sapiens)
Sequence (P36888 27-993, species assumed): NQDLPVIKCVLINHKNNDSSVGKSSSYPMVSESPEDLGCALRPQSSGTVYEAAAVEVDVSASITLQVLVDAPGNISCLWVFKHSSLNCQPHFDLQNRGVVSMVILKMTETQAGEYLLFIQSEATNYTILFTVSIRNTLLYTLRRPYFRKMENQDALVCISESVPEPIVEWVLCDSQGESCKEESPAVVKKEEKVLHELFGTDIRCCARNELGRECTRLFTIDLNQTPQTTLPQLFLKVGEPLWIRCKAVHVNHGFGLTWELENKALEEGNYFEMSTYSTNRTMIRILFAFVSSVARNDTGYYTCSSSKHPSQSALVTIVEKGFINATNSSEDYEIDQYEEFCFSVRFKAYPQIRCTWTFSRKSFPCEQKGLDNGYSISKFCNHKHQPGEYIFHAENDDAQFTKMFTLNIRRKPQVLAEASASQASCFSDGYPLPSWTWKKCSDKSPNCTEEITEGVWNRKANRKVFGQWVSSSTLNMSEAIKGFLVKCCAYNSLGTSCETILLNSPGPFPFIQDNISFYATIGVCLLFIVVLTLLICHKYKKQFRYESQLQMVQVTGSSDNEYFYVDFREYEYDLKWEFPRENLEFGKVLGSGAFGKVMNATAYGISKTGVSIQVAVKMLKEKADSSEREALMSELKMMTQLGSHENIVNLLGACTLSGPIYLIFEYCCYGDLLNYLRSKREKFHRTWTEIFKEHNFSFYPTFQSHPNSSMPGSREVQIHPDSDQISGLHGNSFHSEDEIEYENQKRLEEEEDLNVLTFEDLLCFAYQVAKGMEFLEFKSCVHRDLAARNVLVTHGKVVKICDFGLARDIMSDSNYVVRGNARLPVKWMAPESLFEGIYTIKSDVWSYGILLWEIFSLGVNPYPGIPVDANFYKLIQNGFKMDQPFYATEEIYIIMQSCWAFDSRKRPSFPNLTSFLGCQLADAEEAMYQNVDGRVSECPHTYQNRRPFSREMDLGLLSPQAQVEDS
PROPERTY LABEL: IC50

[[record]]
molecule = "Cn1cc(-c2[nH]c3ncc4c(c3c2-c2ccc3c(cnn3C)c2)n([C@H]2CC[C@@H](CC#N)CC2)c(=O)n4C)cn1 [Comparative Example C, reference compound]"
reported = "≤ 25 nM"

[[record]]
molecule = "[2H]C([2H])([2H])n1cc(-c2[nH]c3ncc4c(c3c2-c2ccc(OC)cc2)n([C@H]2CC[C@@](C)(NC(=O)C3CC3)CC2)c(=O)n4C)c(F)n1"
reported = "250 to 1250 nM"

[[record]]
molecule = "[2H]C([2H])([2H])n1ncc2cc(-c3c(-c4cn(C)nc4OC)[nH]c4ncc5c(c34)n([C@H]3CC[C@@](C)(NC(=O)C4CC4)CC3)c(=O)n5C)ccc21"
reported = "1250 to 2500 nM"

[[record]]
molecule = "[2H]C([2H])([2H])n1ncc2cc(-c3c(-c4cn(CC)nc4F)[nH]c4ncc5c(c34)n([C@H]3CC[C@@](C)(NC(=O)C4CC4)CC3)c(=O)n5C)ccc21"
reported = "25 to 250 nM"

